- Tested on: EKVX NSCLC
- method-description: NCI tumour cell line growth inhibition, 48 h; in the data active = GI50 below about 0.43 µM; inactive = the rest
Mark one answer only. Choices: Yes (active), No (inactive)

Observe how each entry below is paired with its result.
O=C(O)c1ccc2c3c(ncnc13)-c1ccccc1C2=O; No
NC(=S)N/N=C/c1ccc(O)cn1; No
Cc1cccc(Cl)c1NC(=O)c1cnc(Nc2cc(N3CCOCC3)cc(N3CCOCC3)c2)s1; Yes
c1cncc(-c2nc3ccccc3s2)c1; No
O=C(Nc1ccc2[nH]c(C(=O)N3CC(CCl)c4c3cc([N+](=O)[O-])c3ccccc43)cc2c1)c1cc2ccccc2o1 (configuration not stated); No
COc1ccc2nc3cc([N+](=O)[O-])ccc3c(NCCCN(CCO)CCO)c2c1; No
OC(C1CO1)C(O)C1CO1 (configuration not stated); No
COc1ccc(SC2c3ccc(C)cc3Oc3nc(N)c(C#N)c(N)c32)cc1 (configuration not stated); No
CN[C@@H]1C[C@H]2O[C@@](C)([C@@H]1OC)n1c3ccccc3c3c4c(c5c6ccccc6n2c5c31)C(=O)N[C@H]4O; Yes
CC1(C)N=C(N)N=C(N)N1c1ccc(CCc2ccc(Cl)cc2S(=O)(=O)F)c(Cl)c1; No

Request: Which outcome did this test record for the molecule `CCOc1ccc2nc(-c3cccc(OCC(=O)NC(C)C)c3)nc(Nc3ccc(-c4cn[nH]c4)cc3)c2c1` ?
Response: No

Request: What did the test return for `CC(C)[NH-].CC(C)[NH-].O.O.[Cl][Pt+2][Cl]` ?
Response: No

Request: Write down the call the test reported for this molecule. Item: `COc1ccc2c(c1)c1nc3cc(C)c(C)cc3nc1n2CCN(C)C`
Response: No

Request: Per the assay record, what outcome was assigned to `COc1cc(F)cc([C@@H](CO)NC(=O)[C@@H](C)N2Cc3ccc(-c4nc(NC5CCOCC5)ncc4Cl)cc3C2=O)c1` ?
Response: Yes

Request: Hi team, can someone confirm the assay call for `O=c1oc(-c2ccccc2)cc2cccc(O)c12` ?
Response: No

Request: What call does the record list for `C[C@@H](NC(=O)[C@@H](CC(=O)N1CCC(N2CCCCC2)CC1)N1C(=O)[C@@H](N2C(=O)OC[C@@H]2c2ccccc2)[C@H]1/C=C/c1cccc(Cl)c1)c1ccccc1` ?
Response: No

Request: Could you check what this test reported for `COc1ccc(-c2cn(-c3cccc(C(=O)/C=C/c4ccc(O)c(OC)c4)c3)c(=O)[nH]2)cc1` ?
Response: No
